Assay: clinical
Assay type: in vivo, human
Details: human, in vivo, po, 35 mg/m2, Cmax
endpoint: Cmax (ng/mL)

> print(dat)
                                   compound  scale.unit  endpoint.result
1  O=c1[nH]cc(F)c(=O)[nH]1 [5-FU, 5-fluorouracil, reference compound]       ng/mL              210

A: O=c1[nH]c(=O)n(C2CCCO2)cc1F (racemic) [FT, reference compound]
B: Oc1cc(O)c(Cl)cn1 [CDHP, 5-chloro-2,4-dihydroxypyridine]
Among A and B , which shows a numerically higher Cmax result? Label of pick, please. A
(A: 2370 ng/mL, B: 464 ng/mL)

---

Assay: Food effect PK study of S-1 (fasted vs fed, cross-over)
Format: in vivo, human
Settings: human, in vivo, po, 35 mg/m2, plasma, mean, S-1 35 mg/m^2 oral, fasted patients; read-out: Cmax
endpoint: Cmax (ng/mL)
Quick note: give the figure in ng/mL, leave out the unit.

Bench note: what Cmax did O=c1[nH]c(=O)[nH]c(=O)[nH]1 [CA, cyanuric acid] show? 118

---

Assay: clinical
Format: in vivo, human
Details: human, in vivo, po, 35 mg/m2, t½
endpoint: half-life (h)

> print(dat)
                                   molecule   endpoint  scale.unit  endpoint.result
1  Oc1cc(O)c(Cl)cn1 [CDHP, 5-chloro-2,4-dihydroxypyridine]  half-life           h              4.5

a: O=c1[nH]c(=O)n(C2CCCO2)cc1F (racemic) [FT, reference compound]
b: O=C(O)c1nc(=O)[nH]c(=O)[nH]1 [Oxo, potassium oxonate]
c: O=c1[nH]cc(F)c(=O)[nH]1 [5-FU, 5-fluorouracil, reference compound]
Hey, quick one: sort these by half-life, low to high? To answer, arrange all of the labels according to the requested order. c, b, a

---

Assay: Food effect PK study of S-1 (fasted vs fed, cross-over)
Assay type: in vivo, human
Settings: human, in vivo, po, 35 mg/m2, plasma, mean, S-1 35 mg/m^2 oral, fed patients; read-out: t½ (converted)
endpoint: half-life (h)
State just the number; it will be interpreted in h.

Form field: reported half-life of `O=c1[nH]c(=O)[nH]c(=O)[nH]1` 6.7

---

Assay: Food effect PK study of S-1 (fasted vs fed, cross-over)
Format: in vivo, human
Settings: human, in vivo, po, 35 mg/m2, plasma, mean, S-1 35 mg/m^2 oral, fed patients; read-out: Cmax
endpoint: Cmax (ng/mL)
Form entry: value (ng/mL) — number only.

Using the record for `O=c1[nH]c(=O)[nH]c(=O)[nH]1` , report its Cmax. 160

---

Assay: Food effect PK study of S-1 (fasted vs fed, cross-over)
Type: in vivo, human
Settings: human, in vivo, po, 35 mg/m2, plasma, mean, S-1 35 mg/m^2 oral, fed patients; read-out: Tmax
Experimental: The patient's diagnosis were CRC (7), breast (3), gastric (3) and other (4). A total of 17 patients were entered in this pharmacokinetic study after informed consent. Blood was sampled during 24 hours. […] The pharmacokinetic parameters for tegafur, 5FU, oxonic acid, cyan uric acid, and CDHP were calculated with the computer program WinNonLin (version 1.5). The data were analyzed using non-compartment modeling. […]
endpoint: Tmax (h)
State the answer as a number, implicitly in h.

Need Tmax of `O=c1[nH]c(=O)[nH]c(=O)[nH]1` , thanks. 3.5
